- System: GLP-1R (Homo sapiens)
- Sequence (P43220 24-463): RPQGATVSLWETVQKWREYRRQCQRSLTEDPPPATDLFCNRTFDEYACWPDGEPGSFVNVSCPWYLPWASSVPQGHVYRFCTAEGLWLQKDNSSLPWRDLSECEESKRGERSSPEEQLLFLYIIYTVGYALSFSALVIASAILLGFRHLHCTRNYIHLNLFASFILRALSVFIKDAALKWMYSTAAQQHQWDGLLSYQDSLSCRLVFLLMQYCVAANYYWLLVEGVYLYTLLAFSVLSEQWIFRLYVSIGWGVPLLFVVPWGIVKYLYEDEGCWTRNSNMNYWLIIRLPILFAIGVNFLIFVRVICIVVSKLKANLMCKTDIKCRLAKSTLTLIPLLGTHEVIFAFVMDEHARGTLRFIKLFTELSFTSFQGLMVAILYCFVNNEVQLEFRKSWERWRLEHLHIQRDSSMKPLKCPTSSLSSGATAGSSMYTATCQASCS
- Assay comment: GLP-1R activation: cAMP increase in CHO cells stably expressing GLP-1R
- Assay type: cell-based
- Test settings: cAMP increase, CHO cells stably expressing GLP-1R, 10 point dose response, 30 minutes incubation; read-out: EC50
Entries whose EC50 is below 10 nM take Condition met; entries at or above 10 nM take Condition not met.

Compound: COCCn1c(Cc2cc(F)c(-c3cccc(OCc4cccc(-c5ccn(C)n5)c4)n3)cc2F)nc2ccc(C(=O)O)cc21 [Example 914]
Cat: Condition not met

Compound: O=C(O)c1ccc2nc(Cc3ccc(-c4cccc(OCc5ccc(Cl)cc5F)n4)cc3F)n(CC3(CF)CC3)c2c1 [Example 352]
Cat: Condition met

Compound: N#CCC1(Cn2c(Cc3ccc(-c4ccnc(OCc5ccc(C#N)cc5F)n4)cc3F)nc3c(F)cc(C(=O)O)cc32)CC1 [Example 168]
Cat: Condition met

Compound: COCCn1c(Cc2ccc(-c3cccc(OCc4ccccc4-c4ccccc4)n3)cc2F)nc2ccc(C(=O)O)cc21 [Example 500]
Cat: Condition not met

Here is the next item to consider.
Find out if reported EC50 for N#Cc1ccc(COc2cccc(-c3cc(F)c(Cc4nc5ccc(C(=O)O)cc5n4CC45COCC4C5)cc3F)n2)c(F)c1 (centres unmarked) [Example 704] is less than 10 nM
Condition met

###

- System: GLP-1R (Homo sapiens)
- Assay comment: GLP-1R activation: cAMP increase in CHO cells stably expressing GLP-1R
- Assay type: cell-based
- Test settings: cAMP increase, CHO cells stably expressing GLP-1R, 10 point dose response, 30 minutes incubation; read-out: EC50
Grouping by measured EC50 is done with the following cut points: bottom = under 0.9 nM, middle = from 0.9 nM up to 60 nM, top = 60 nM and over

Solved entries (count: 3):
Molecule: COCCn1c(Cc2ccc(-c3cccc(OCc4cc(C(C)C)ccc4F)n3)cc2F)nc2ccc(C(=O)O)cc21
Cat: top
//
Molecule: O=C(O)c1cc(F)c2nc(Cc3cc(F)c(-c4ccc(F)c(OCc5ccc(C(F)(F)F)cc5F)n4)cc3F)n(C[C@@H]3CCO3)c2c1
Cat: bottom
//
Molecule: COCCn1c(Cc2c(F)cc(-c3cccc(OCc4ccc(Cl)nc4)n3)cc2F)nc2ccc(C(=O)O)cc21
Cat: middle

Kindly state the category for this molecule: COCCn1c(Cc2ccc(-c3ccc(C#N)c(OCc4ccc(C#N)cc4F)n3)cc2F)nc2ccc(C(=O)O)cc21
top

Kindly state the category for this molecule: COC1(Cn2c(Cc3cc(F)c(-c4cccc(OCc5ccc(C#N)cc5F)n4)cc3F)nc3ccc(C(=O)O)cc32)CN(C(C)=O)C1
top

###

- System: GLP-1R (Homo sapiens)
- Assay comment: GLP-1R activation: cAMP increase in CHO cells stably expressing GLP-1R
- Type: cell-based
- Test settings: cAMP increase, CHO cells stably expressing GLP-1R, 10 point dose response, 30 minutes incubation; read-out: EC50
Assay readout: pEC50
A value of pEC50 is the negative decimal logarithm of a concentration given in moles per litre.

Field: example entries. Status: answers known.
Smiles repr: N#Cc1ccc(COc2cccc(-c3ccc(Cc4nc5ccc(C(=O)O)cc5n4CC4(O)COC4)c(F)c3)n2)c(F)c1
Observed measurement: 7.86
--
Smiles repr: N#CCC1(Cn2c(Cc3ccc(-c4ccnc(OCc5ccc(C#N)cc5F)n4)c(F)c3)nc3c(F)cc(C(=O)O)cc32)CC1
Observed measurement: 8.88
--
Smiles repr: COCCn1c(Cc2ccc(-c3cccc(OCc4ccc(C#N)cc4F)n3)cc2-c2cccc(OC)c2)nc2ccc(C(=O)O)cc21
Observed measurement: 7.43
--
Smiles repr: N#Cc1ccc(COc2cccc(-c3ccc(Cc4nc5ccc(C(=O)O)cc5n4CC4(C(F)F)CCC4)c(F)c3)n2)c(F)c1
Observed measurement: 8.87
--
Smiles repr: C[C@@H](C1CC1)n1c(Cc2ccc(-c3cccc(OCc4ccc(C#N)cc4F)n3)cc2F)nc2ccc(C(=O)O)cc21
Observed measurement: 7.42
--
Smiles repr: N#CCC1(Cn2c(Cc3cc(F)c(-c4ccc(F)c(OCc5ccc(C#N)cc5F)n4)cc3F)nc3ccc(C(=O)O)nc32)CC1
Observed measurement: 9.96

Report measured pEC50; entry is O=C(O)c1cc(F)c2nc(Cc3cc(F)c(-c4ccc(F)c(OCc5ccc(C(F)F)cc5F)n4)cc3F)n(C[C@@H]3CCO3)c2c1
9.29

Report measured pEC50; entry is COCCn1c(Cc2c(F)cc(-c3cccnc3OCc3ccc(C#N)cc3F)cc2F)nc2ccc(C(=O)O)cc21
7.34
